Target: T1, Lag3 (NCBI Reference Sequence: NP_002277.4) on Lag3-CHO cells (UniProt P18627 23-525, limits assumed)
T1 construct: whole, on cells
T1 sequence (looked up): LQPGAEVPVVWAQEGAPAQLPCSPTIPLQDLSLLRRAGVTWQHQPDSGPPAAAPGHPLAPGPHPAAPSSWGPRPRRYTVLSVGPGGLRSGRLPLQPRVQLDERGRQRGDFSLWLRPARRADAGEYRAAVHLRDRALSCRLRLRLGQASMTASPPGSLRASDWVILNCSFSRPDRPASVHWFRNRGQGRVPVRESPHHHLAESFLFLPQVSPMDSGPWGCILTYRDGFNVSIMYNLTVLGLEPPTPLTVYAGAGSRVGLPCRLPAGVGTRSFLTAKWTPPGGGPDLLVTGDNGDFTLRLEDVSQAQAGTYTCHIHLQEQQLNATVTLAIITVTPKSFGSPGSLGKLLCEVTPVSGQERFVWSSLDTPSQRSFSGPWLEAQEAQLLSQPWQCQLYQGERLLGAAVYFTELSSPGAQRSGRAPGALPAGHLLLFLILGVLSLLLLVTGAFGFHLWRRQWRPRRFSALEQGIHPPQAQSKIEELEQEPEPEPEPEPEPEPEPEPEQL
Test: flow cytometry on Lag3-CHO cells; blank P3 0.5%; the filing says V1-V5 did not bind
Result Type: % of cells in gate P3 at 100 nM (%)
Just the number please, in %, no unit attached.

INSERT INTO measurements (binder, value_reported) VALUES
  ('Antibody V2 (antibody, human IgG1, kappa, V domains shown, Humanized from chimeric antibody M1; also called humanized antibody V2) VH: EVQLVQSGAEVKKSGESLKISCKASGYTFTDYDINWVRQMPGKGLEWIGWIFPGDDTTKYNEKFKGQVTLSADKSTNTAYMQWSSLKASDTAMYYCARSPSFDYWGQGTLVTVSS VL: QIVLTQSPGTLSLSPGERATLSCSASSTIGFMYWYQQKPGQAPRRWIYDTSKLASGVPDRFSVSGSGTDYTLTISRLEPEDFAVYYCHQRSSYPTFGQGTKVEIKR', 5.6);

Need % of cells in gate P3 at 100 nM, item Antibody V5 (antibody, human IgG1, kappa, V domains shown, Humanized from chimeric antibody M1; also called humanized antibody V5) VH: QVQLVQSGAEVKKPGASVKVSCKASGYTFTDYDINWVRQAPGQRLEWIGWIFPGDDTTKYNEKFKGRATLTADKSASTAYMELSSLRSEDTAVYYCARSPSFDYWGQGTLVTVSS VL: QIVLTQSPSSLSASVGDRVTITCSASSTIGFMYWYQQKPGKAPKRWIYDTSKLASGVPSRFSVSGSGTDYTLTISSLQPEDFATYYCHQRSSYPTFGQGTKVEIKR
0.4

Need % of cells in gate P3 at 100 nM, item Antibody V3 (antibody, human IgG1, kappa, V domains shown, Humanized from chimeric antibody M1; also called humanized antibody V3) VH: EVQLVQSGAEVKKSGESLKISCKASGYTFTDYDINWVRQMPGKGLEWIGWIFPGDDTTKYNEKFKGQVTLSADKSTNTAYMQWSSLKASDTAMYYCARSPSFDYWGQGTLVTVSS VL: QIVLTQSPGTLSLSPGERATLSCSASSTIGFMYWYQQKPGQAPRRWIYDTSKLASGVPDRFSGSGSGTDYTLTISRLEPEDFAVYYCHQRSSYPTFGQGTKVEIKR
0.6

Need % of cells in gate P3 at 100 nM, item Antibody V1 (antibody, human IgG1, kappa, V domains shown, Humanized from chimeric antibody M1; also called humanized antibody V1) VH: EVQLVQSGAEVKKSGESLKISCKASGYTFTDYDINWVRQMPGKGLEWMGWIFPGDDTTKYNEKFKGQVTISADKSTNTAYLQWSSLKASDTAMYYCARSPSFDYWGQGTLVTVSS VL: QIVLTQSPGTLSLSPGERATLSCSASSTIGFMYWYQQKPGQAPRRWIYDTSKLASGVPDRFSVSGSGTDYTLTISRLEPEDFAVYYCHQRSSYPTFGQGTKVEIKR
3.2
